Source: the NIST ThermoML archive (doi:10.1021/je600573w)

- experiment summary: molar heat capacity at constant pressure
- stated conditions: 341.15 K; 101.33 kPa; Liquid; Small sample (50 mg) DSC
Form field: molar heat capacity at constant pressure (one value per entry).
Output spec: scalar in J/K/mol, unitless text.

INSERT INTO assay_data (compound, observed_measurement) VALUES
  ('Brc1ccccc1Br [1,2-dibromobenzene]', 188.42),
  ('Clc1ccccc1Br [1-bromo-2-chlorobenzene]', 184.05);

stdin: Give the value of molar heat capacity at constant pressure reported for the following: Clc1cccc(Cl)c1 [1,3-dichlorobenzene]
stdout: 180.2

stdin: Give the value of molar heat capacity at constant pressure reported for the following: Clc1ccccc1Cl [1,2-dichlorobenzene]
stdout: 180.54
